FYI, the data here is from the supplement of paper PMC12855868.

B1: library; numbered along this chain (parent)
chain: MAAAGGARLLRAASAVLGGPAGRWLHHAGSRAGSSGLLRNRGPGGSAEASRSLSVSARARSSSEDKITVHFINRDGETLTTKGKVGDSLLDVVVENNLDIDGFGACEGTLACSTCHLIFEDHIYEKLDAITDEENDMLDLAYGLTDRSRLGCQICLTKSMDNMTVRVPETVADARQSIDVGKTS

# Variants of: B1
# EXPERIMENT_SUMMARY: scaled log2 fold change in cell abundance, elesclomol vs control (0 = silent mean, 1 = nonsense mean) (scaled log2 ratio); higher = higher viability under elesclomol (loss of FDX1 cuproptosis function);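 also: variant abundance is its share of total variant reads in each endpoint sample, from next-generation sequencing of the integrated ORF PCR-amplified out of genomic DNA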
# CONDITION: with HEK293T FDX1 KO; elesclomol 40 nM; glucose 10 mM; 11 days
Exercise: state measured scaled log2 fold change for each of the variants provided.
Answers are plain numbers.

Previously resolved entries follow.
VARIANT_SPEC: L10D
EXPERIMENTAL_VALUE: 0.0467

VARIANT_SPEC: W24D
EXPERIMENTAL_VALUE: -0.665

VARIANT_SPEC: G5Q
EXPERIMENTAL_VALUE: -0.646

VARIANT_SPEC: A129K
EXPERIMENTAL_VALUE: -0.17

Give scaled log2 fold change for all variants that follow.
1. S34K
2. R60Y
3. M137C
4. T80P
5. D179I
6. R31G

**A:**
-0.467
0.0482
-0.635
-0.0181
0.926
-0.248

Give scaled log2 fold change for all variants that follow.
1. D136Q
2. E169I
3. V85P
4. N97I
5. A57L
6. N73E
7. L9V

**A:**
0.87
-0.174
-1.46
-0.93
0.149
0.823
-0.433

Give scaled log2 fold change for all variants that follow.
1. K66I
2. L140M
3. T109D
4. I154M
5. P43N
6. S52V
7. E64K
8. R23M

**A:**
1. -0.755
2. 0.793
3. 0.407
4. 0.583
5. 1.24
6. -0.177
7. -0.162
8. -0.139

Give scaled log2 fold change for all variants that follow.
1. I100C
2. G83A
3. G29L

**A:**
1. 0.943
2. -0.672
3. 0.376
